So I've got a bunch of molecules here, and I need their ΔTm values.
Give the number; °C is assumed, so skip it.

Exercise: Request - read-out ΔTm | tested on Wee1-like protein kinase 2 (Homo sapiens, UniProt P0C1S8) | molecule `COc1cc2c(Nc3cc(Cl)c(OC)c(Cl)c3)c(C#N)cnc2cc1OCCCN1CCN(C)CC1`
Key: 12.3

Exercise: Request - read-out ΔTm | tested on Wee1-like protein kinase 2 (Homo sapiens, UniProt P0C1S8) | molecule `Cc1nc(Nc2ncc(C(=O)Nc3c(C)cccc3Cl)s2)cc(N2CCN(CCO)CC2)n1`
Key: 9.2

Exercise: Request - read-out ΔTm | tested on Wee1-like protein kinase 2 (Homo sapiens, UniProt P0C1S8) | molecule CC(=O)NCC(=O)N1[C@@H]2CC[C@H]1c1ccc(Nc3ncc(C(F)(F)F)c(NC4CCC4)n3)cc12 (single isomer, unassigned)
Key: 8.5
